# System: H596 lung adenosquamous carcinoma cells
# PROCEDURE DETAILS: Relative colony forming efficiency (Example 17, Table 13)
# Type: cell-based, human
# ASSAY CONTEXT: averages of 2-8 determinations
# Method: Colony forming efficiency was determined using standard protocols. […] The test oligonucleotides were added to cell cultures in the presence of 2.5 μg of DOTMA/DOPE (Lipofectin; Life Technologies, Inc.) for four hours. The oligonucleotide was tested at 0.2 μM unless otherwise indicated. […] Surviving cells were visualized by methylene blue staining, and colonies were scored. In some experiments cell aliquots were removed from the culture and viability was determined using the trypan blue exclusion test. […]
Oligonucleotides are written 5' to 3', each unit as a sugar letter and its base; * is a phosphorothioate linkage, no mark a phosphodiester; rarer units and linkages stand in square brackets, end groups in braces. Plain capitals give the bases only. d = 2'-deoxy (DNA)
Consider the following sequences and their measured Reduced relative colony forming efficiency, 11596 (% inhibition of colony forming ability) readings.
State the result as a value with its unit after it.

SEQUENCE ENTRY: TGCCTCCGACCCTTCCCA (antisense dT*dG*dC*dC*dT*dC*dC*dG*dA*dC*dC*dC*dT*dT*dC*dC*dC*dA) [AS-II-16-18]
READOUT VALUE: 34.5%

# get_value(readout='Reduced relative colony forming efficiency, 11596 (% inhibition of colony forming ability)', item= CGGCGGCGTGTT (antisense dC*dG*dG*dC*dG*dG*dC*dG*dT*dG*dT*dT) [AS-II-288-12] )
12.67%

# get_value(readout='Reduced relative colony forming efficiency, 11596 (% inhibition of colony forming ability)', item= GCAGCGAAGCAGAGCGAGCA (antisense dG*dC*dA*dG*dC*dG*dA*dA*dG*dC*dA*dG*dA*dG*dC*dG*dA*dG*dC*dA) [AS-II-166-20] )
61.99%

---

# Tested on: HepG2 hepatocellular carcinoma
# PROCEDURE DETAILS: Relative colony forming efficiency (Example 17, Table 13)
# Assay type: cell-based, human
# ASSAY CONTEXT: averages of 2-8 determinations
Oligonucleotides are written 5' to 3', each unit as a sugar letter and its base; * is a phosphorothioate linkage, no mark a phosphodiester; rarer units and linkages stand in square brackets, end groups in braces. Plain capitals give the bases only. d = 2'-deoxy (DNA)
Assign Met whenever Reduced relative colony forming efficiency, HepG2 (% inhibition of colony forming ability) does not fall below 80%; assign Not met whenever it does.

Worked examples, 3 sequences total:
SEQUENCE ENTRY: GCCACAGGATAAAAACACAA (antisense dG*dC*dC*dA*dC*dA*dG*dG*dA*dT*dA*dA*dA*dA*dA*dC*dA*dC*dA*dA) [AS-II-2009-20]
TGT: HepG2 hepatocellular carcinoma
CLASS ASSIGNMENT: Met

SEQUENCE ENTRY: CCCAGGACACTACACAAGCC (antisense dC*dC*dC*dA*dG*dG*dA*dC*dA*dC*dT*dA*dC*dA*dC*dA*dA*dG*dC*dC) [AS-II-2026-20]
TGT: HepG2 hepatocellular carcinoma
CLASS ASSIGNMENT: Met

SEQUENCE ENTRY: TCCTCGGCGGTCCAAA (antisense dT*dC*dC*dT*dC*dG*dG*dC*dG*dG*dT*dC*dC*dA*dA*dA) [AS-II-496-16]
TGT: HepG2 hepatocellular carcinoma
CLASS ASSIGNMENT: Not met

Say whether TTAGAAGTCAGCATCCAAGG (antisense dT*dT*dA*dG*dA*dA*dG*dT*dC*dA*dG*dC*dA*dT*dC*dC*dA*dA*dG*dG) [AS-II-1345-20] shows Reduced relative colony forming efficiency, HepG2 (% inhibition of colony forming ability) of 80% or more.
Not met

Say whether TCCTCGCGGTCTTGCTGGCC (antisense dT*dC*dC*dT*dC*dG*dC*dG*dG*dT*dC*dT*dT*dG*dC*dT*dG*dG*dC*dC) [AS-II-323-20] shows Reduced relative colony forming efficiency, HepG2 (% inhibition of colony forming ability) of 80% or more.
Met

Say whether TTAGTGGTCAGGAGAATGTA (antisense dT*dT*dA*dG*dT*dG*dG*dT*dC*dA*dG*dG*dA*dG*dA*dA*dT*dG*dT*dA) [AS-II-1819-20] shows Reduced relative colony forming efficiency, HepG2 (% inhibition of colony forming ability) of 80% or more.
Met

Say whether TGCCTCCGACCCTTCCCA (antisense dT*dG*dC*dC*dT*dC*dC*dG*dA*dC*dC*dC*dT*dT*dC*dC*dC*dA) [AS-II-16-18] shows Reduced relative colony forming efficiency, HepG2 (% inhibition of colony forming ability) of 80% or more.
Not met

Say whether TATCTCTCCTCGGGTTTCAG (antisense dT*dA*dT*dC*dT*dC*dT*dC*dC*dT*dC*dG*dG*dG*dT*dT*dT*dC*dA*dG) [AS-II-549-20] shows Reduced relative colony forming efficiency, HepG2 (% inhibition of colony forming ability) of 80% or more.
Met

Say whether GAAGCCATAGAAACAGCGGG (antisense dG*dA*dA*dG*dC*dC*dA*dT*dA*dG*dA*dA*dA*dC*dA*dG*dC*dG*dG*dG) [AS-II-667-20] shows Reduced relative colony forming efficiency, HepG2 (% inhibition of colony forming ability) of 80% or more.
Met
